# IC50 values compiled below
# Tested on: AR mRNA
# test details: Dose-dependent antisense inhibition of human AR in HuVEC cells (electroporation, qRT-PCR RTS3559, IC50)
# Type: cell-based
# experimental conditions: Table 29; HuVEC, electroporation, approximately 16 hours
Oligonucleotides are written 5' to 3', each unit as a sugar letter and its base; * is a phosphorothioate linkage, no mark a phosphodiester; rarer units and linkages stand in square brackets, end groups in braces. Plain capitals give the bases only. k = constrained ethyl (cEt); [5mC] = 5-methylcytosine; d = 2'-deoxy (DNA)
Supply the numeric figure in µM, leaving out any unit text.

>  <substance>
583556 (antisense kA*kA*k[5mC]*dT*dT*d[5mC]*dA*d[5mC]*d[5mC]*dG*dA*dA*dG*kA*kG*kG) [compound 583556]

>  <units symbol>
µM

>  <quantitative readout>
0.34

$$$$
>  <substance>
583559 (antisense kA*kG*kT*d[5mC]*dT*dT*dT*dA*dG*d[5mC]*dA*dG*d[5mC]*kT*kT*kT) [compound 583559]

>  <units symbol>
µM

>  <quantitative readout>
0.22

$$$$
>  <substance>
583584 (antisense k[5mC]*k[5mC]*kG*dA*d[5mC]*dT*dG*dA*dG*dG*d[5mC]*dA*dG*k[5mC]*kT*kG) [compound 583584]

>  <units symbol>
µM

>  <quantitative readout>
0.41

$$$$

Now consider a different substance.
Item 583649 (antisense kA*kG*kG*d[5mC]*dT*d[5mC]*dA*d[5mC]*dA*dG*dT*d[5mC]*dT*kG*kT*k[5mC]) [compound 583649] : provide IC50
0.2

The origin of these recorded values is patent USRE48461E1.
